- target entity: human V1a receptor (Homo sapiens, UniProt P37288)
- Sequence (P37288 whole entry): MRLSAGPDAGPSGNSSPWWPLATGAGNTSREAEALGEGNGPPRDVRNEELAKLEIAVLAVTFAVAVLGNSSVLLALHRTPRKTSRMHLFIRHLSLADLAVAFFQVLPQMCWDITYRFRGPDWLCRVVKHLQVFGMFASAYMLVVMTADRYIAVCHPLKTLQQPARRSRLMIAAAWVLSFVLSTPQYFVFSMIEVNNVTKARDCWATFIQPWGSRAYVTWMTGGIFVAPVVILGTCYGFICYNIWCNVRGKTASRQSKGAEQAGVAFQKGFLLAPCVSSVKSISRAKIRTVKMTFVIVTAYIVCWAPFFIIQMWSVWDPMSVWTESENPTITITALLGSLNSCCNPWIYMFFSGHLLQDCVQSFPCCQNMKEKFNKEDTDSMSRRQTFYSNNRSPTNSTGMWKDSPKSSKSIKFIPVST
- assay text: V1a binding assay (3H-AVP displacement, HEK-293 membranes)
- Set-up: expressed in transfected cells; host or cells: HEK-293 (membranes)
The following compounds are shown together with reported log10 of IC50 values.
Log scale reminder: IC50 in nM, then log10 taken.

Past entries and their recorded results:
| compound | target entity | log10 of IC50 |
| --- | --- | --- |
| CCN(CC)CCCn1c(=O)n(C2CCN(C(=S)NC(c3ccccc3)c3ccccc3)CC2)c2ccccc21 [Compound 85] | human V1a receptor (Homo sapiens, UniProt P37288) | 1.30 |
| O=c1[nH]c2ccccc2n1C1CCN(C(=S)NCc2ccccc2Cl)CC1 [Compound 12] | human V1a receptor (Homo sapiens, UniProt P37288) | 3.40 |
| O=c1n(CCCN2CCCCC2)c2ccccc2n1C1CCN(C(=S)NCc2ccc(Cl)c(Cl)c2)CC1 [Compound 174] | human V1a receptor (Homo sapiens, UniProt P37288) | 2.62 |
| CCN(CC)CCn1c(=O)n(C2CCN(C(=S)NCc3ccccc3-c3ccccc3)CC2)c2ccccc21 [Compound 90] | human V1a receptor (Homo sapiens, UniProt P37288) | 1.79 |
| O=c1n(CCCN2CCCCC2)c2ccccc2n1C1CCN(C(=S)NCc2ccc3c(c2)OCO3)CC1 [Compound 163] | human V1a receptor (Homo sapiens, UniProt P37288) | 2.18 |

Req: Find the measured log10 of IC50: item O=c1n(CCCN2CCCCC2)c2ccccc2n1C1CCN(C(=S)NC(c2ccccc2)c2ccccc2)CC1 [Compound 81] , target or system human V1a receptor (Homo sapiens, UniProt P37288).
Resp: 0.60

Req: Next record, please: O=c1[nH]c2ccccc2n1C1CCN(C(=S)NCc2ccccc2)CC1 [Compound 11]
Resp: 3.49

Req: Next record, please: O=c1n(CCCCN2CCCC2)c2ccccc2n1C1CCN(C(=S)NC(c2ccccc2)c2ccccc2)CC1 [Compound 104]
Resp: 1.26

Req: Next record, please: O=c1n(CCCN2CCCCC2)c2ccccc2n1C1CCN(C(=S)NC2c3ccccc3-c3ccccc32)CC1 [Compound 131]
Resp: 1.68

Req: Next record, please: O=c1n(CCCNCC2CCCCC2)c2ccccc2n1C1CCN(C(=S)NC(c2ccccc2)c2ccccc2)CC1 [Compound 88]
Resp: 1.56

Req: Next record, please: O=C(NC(c1ccccc1)c1ccccc1)N1CCC(n2c(=O)n(CCCN3CC=CC3)c3ccccc32)CC1 [Compound 102]
Resp: 2.09

Req: Next record, please: O=c1n(CCCN2CCCCC2)c2ccccc2n1C1CCN(C(=S)NCc2cccs2)CC1 [Compound 160]
Resp: 2.36

Req: Next record, please: O=c1n(CCCN2CCCCC2)c2cc(C(F)(F)F)ccc2n1C1CCN(C(=S)NC(c2ccccc2)c2ccccc2)CC1 [Compound 121]
Resp: 2.52

Req: Next record, please: CC(CN1CCCCC1)Cn1c(=O)n(C2CCN(C(=O)NC(c3ccccc3)c3ccccc3)CC2)c2ccccc21 (stereo not drawn) [Compound 147]
Resp: 2.64

Req: Next record, please: CCCN(CCC)CCCn1c(=O)n(C2CCN(C(=O)NC(c3ccccc3)c3ccccc3)CC2)c2ccccc21 [Compound 80]
Resp: 2.23

Req: Next record, please: O=C(NC(c1ccccc1)c1ccccc1)N1CCC(n2c(=O)n(CCCN3CCCCC3)c3ccccc32)CC1 [Compound 97]
Resp: 1.53

Req: Next record, please: CCN(CC)CCn1c(=O)n(C2CCN(C(=S)NC(c3ccccc3)c3ccccc3)CC2)c2ccccc21 [Compound 35]
Resp: 1.88

Req: Next record, please: CCN(CC)CCn1c(=O)n(C2CCN(C(=S)NC(Cc3ccccc3)C(=O)OC)CC2)c2ccccc21 (stereo not drawn) [Compound 42]
Resp: 1.58
